- target: 5-HT1A human receptors (Homo sapiens, UniProt P08908)
- Construct: expressed in transfected cells; host or cells: CHO cells
- Sequence (P08908 whole entry): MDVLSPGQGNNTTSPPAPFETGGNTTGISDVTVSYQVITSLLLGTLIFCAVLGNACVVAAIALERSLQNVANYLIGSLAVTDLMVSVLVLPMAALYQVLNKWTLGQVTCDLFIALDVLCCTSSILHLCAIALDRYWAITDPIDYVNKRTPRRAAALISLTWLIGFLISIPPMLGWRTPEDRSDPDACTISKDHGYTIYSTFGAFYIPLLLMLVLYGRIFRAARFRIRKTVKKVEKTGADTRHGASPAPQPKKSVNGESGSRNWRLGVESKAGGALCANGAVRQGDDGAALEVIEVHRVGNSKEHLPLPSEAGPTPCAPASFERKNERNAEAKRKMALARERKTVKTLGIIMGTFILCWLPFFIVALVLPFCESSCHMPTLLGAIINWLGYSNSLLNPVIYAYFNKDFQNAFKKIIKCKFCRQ
- assay-notes: 5-HT1A Radioligand Receptor Binding Assay ([3H]-8-OH-DPAT, CHO cell membranes)
- experimental-parameters: [3H]-8-OH-DPAT displacement, CHO membranes; read-out: 5-HT1A receptor binding IC50
- Description: Membranes from CHO cells, expressing 5-HT1A human receptors were suspended in incubation buffer. The compounds were tested in singlicate at one concentration (10^-7 M) in a total volume of 1000 µl. […] Non specific binding was determined in the presence of 5-HT (10^-5 M). The specific radioligand binding to the receptor was defined by the difference between total binding and non specific binding, determined in the presence of an excess of unlabelled ligand. […]
With a cut-off of 7 nM, any IC50 strictly below it is called T; any IC50 meeting it or above is called F.

Problem: For this compound, is IC50 lower than 7 nM? "Cc1cccc(N2CCN(CCn3c(=O)n(CCN4CCCCC4)c4ccccc43)CC2)c1C"
Result: F

Problem: For this compound, is IC50 lower than 7 nM? "CCNC(=O)OCCn1c(=O)n(CCCCN2CCN(c3cccc(C(F)(F)F)c3)CC2)c2ccccc21"
Result: F

Problem: For this compound, is IC50 lower than 7 nM? "Cc1cccc(N2CCN(CCCCn3c(=O)n(CCO)c4ccccc43)CC2)c1C"
Result: F

Problem: For this compound, is IC50 lower than 7 nM? "CC(=O)NCCn1c(=O)n(CCN2CCN(c3cccc(C)c3C)CC2)c2ccccc21"
Result: F

Problem: For this compound, is IC50 lower than 7 nM? "CCNC(=O)OCCn1c(=O)n(CCN2CCN(c3cccc(C)c3)CC2)c2ccccc21"
Result: T

Problem: For this compound, is IC50 lower than 7 nM? "COCCn1c(=O)n(CCN2CCN(c3cccc(Cl)c3)CC2)c2ccccc21"
Result: T

Problem: For this compound, is IC50 lower than 7 nM? "CCNC(=O)OCCn1c(=O)n(CCN2CCN(c3cccc(Cl)c3)CC2)c2ccccc21"
Result: T

---

- target: 5-HT1A human receptors (Homo sapiens, UniProt P08908)
- Construct: expressed in transfected cells; host or cells: CHO cells
- assay-notes: 5-HT1A Radioligand Receptor Binding Assay ([3H]-8-OH-DPAT, CHO cell membranes)
- experimental-parameters: compound at 10^-7 M, singlicate; [3H]-8-OH-DPAT 0.6-0.7 nM; read-out: 5-HT1A receptor binding assay % inhib. (10^-7 M)
readout-name: inhibition at 0.1 µM (%)
Numbers only; they are read as %.

Problem: May I ask what inhibition at 0.1 µM has been recorded for "O=c1n(CCO)c2ccccc2n1CCCCN1CCN(c2ccc(Cl)c(Cl)c2)CC1" ?
Result: 65

Problem: May I ask what inhibition at 0.1 µM has been recorded for "CCNC(=O)OCCn1c(=O)n(CCN2CCN(c3ccccc3Cl)CC2)c2ccccc21" ?
Result: 89

Problem: May I ask what inhibition at 0.1 µM has been recorded for "CCNC(=O)OCCn1c(=O)n(CCN2CCN(c3ccccc3OC)CC2)c2ccccc21" ?
Result: 92

Problem: May I ask what inhibition at 0.1 µM has been recorded for "CS(=O)(=O)NCCn1c(=O)n(C/C=C\CN2CCc3c([nH]c4ccccc34)C2)c2ccccc21" ?
Result: 70

Problem: May I ask what inhibition at 0.1 µM has been recorded for "O=c1n(C/C=C/CN2CCc3c([nH]c4ccccc34)C2)c2ccccc2n1CCN1CCCCC1" ?
Result: 99

Problem: May I ask what inhibition at 0.1 µM has been recorded for "Cc1cccc(N2CCN(CCn3c(=O)n(CCNS(C)(=O)=O)c4ccccc43)CC2)c1" ?
Result: 59

Problem: May I ask what inhibition at 0.1 µM has been recorded for "O=c1n(CCN2CCOCC2)c2ccccc2n1CCN1CCN(c2cccc(Cl)c2)CC1" ?
Result: 98

Problem: May I ask what inhibition at 0.1 µM has been recorded for "COCCn1c(=O)n(CC=CCN2CCN(c3cccc(Cl)c3)CC2)c2ccccc21" ?
Result: 93

Problem: May I ask what inhibition at 0.1 µM has been recorded for "O=c1n(CCN2CCCCC2)c2ccccc2n1CCN1CCN(c2cccc(C(F)(F)F)c2)CC1" ?
Result: 88

Problem: May I ask what inhibition at 0.1 µM has been recorded for "CCNC(=O)OCCn1c(=O)n(C/C=C/CN2CCN(c3cccc(Cl)c3)CC2)c2ccccc21" ?
Result: 96

Problem: May I ask what inhibition at 0.1 µM has been recorded for "O=c1n(CC=CCN2CCc3c([nH]c4ccccc34)C2)c2ccccc2n1CCN1CCOCC1" ?
Result: 55

Problem: May I ask what inhibition at 0.1 µM has been recorded for "COc1ccccc1N1CCN(CCn2c(=O)n(CCN3CCCCC3)c3ccccc32)CC1" ?
Result: 85

Problem: May I ask what inhibition at 0.1 µM has been recorded for "O=c1n(C/C=C/CN2CCN(c3ccccn3)CC2)c2ccccc2n1CCN1CCCCC1" ?
Result: 97

Problem: May I ask what inhibition at 0.1 µM has been recorded for "CCNC(=O)OCCn1c(=O)n(CCCCN2CCN(c3cccc(C(F)(F)F)c3)CC2)c2ccccc21" ?
Result: 89

Problem: May I ask what inhibition at 0.1 µM has been recorded for "CCNC(=O)OCCn1c(=O)n(C/C=C\CN2CCN(c3ccccc3)CC2)c2ccccc21" ?
Result: 86

Problem: May I ask what inhibition at 0.1 µM has been recorded for "CS(=O)(=O)NCCn1c(=O)n(CCN2CCN(c3cccc(Cl)c3)CC2)c2ccccc21" ?
Result: 69
